- study_target: UniProt P41594
- Sequence (P41594 21-1212): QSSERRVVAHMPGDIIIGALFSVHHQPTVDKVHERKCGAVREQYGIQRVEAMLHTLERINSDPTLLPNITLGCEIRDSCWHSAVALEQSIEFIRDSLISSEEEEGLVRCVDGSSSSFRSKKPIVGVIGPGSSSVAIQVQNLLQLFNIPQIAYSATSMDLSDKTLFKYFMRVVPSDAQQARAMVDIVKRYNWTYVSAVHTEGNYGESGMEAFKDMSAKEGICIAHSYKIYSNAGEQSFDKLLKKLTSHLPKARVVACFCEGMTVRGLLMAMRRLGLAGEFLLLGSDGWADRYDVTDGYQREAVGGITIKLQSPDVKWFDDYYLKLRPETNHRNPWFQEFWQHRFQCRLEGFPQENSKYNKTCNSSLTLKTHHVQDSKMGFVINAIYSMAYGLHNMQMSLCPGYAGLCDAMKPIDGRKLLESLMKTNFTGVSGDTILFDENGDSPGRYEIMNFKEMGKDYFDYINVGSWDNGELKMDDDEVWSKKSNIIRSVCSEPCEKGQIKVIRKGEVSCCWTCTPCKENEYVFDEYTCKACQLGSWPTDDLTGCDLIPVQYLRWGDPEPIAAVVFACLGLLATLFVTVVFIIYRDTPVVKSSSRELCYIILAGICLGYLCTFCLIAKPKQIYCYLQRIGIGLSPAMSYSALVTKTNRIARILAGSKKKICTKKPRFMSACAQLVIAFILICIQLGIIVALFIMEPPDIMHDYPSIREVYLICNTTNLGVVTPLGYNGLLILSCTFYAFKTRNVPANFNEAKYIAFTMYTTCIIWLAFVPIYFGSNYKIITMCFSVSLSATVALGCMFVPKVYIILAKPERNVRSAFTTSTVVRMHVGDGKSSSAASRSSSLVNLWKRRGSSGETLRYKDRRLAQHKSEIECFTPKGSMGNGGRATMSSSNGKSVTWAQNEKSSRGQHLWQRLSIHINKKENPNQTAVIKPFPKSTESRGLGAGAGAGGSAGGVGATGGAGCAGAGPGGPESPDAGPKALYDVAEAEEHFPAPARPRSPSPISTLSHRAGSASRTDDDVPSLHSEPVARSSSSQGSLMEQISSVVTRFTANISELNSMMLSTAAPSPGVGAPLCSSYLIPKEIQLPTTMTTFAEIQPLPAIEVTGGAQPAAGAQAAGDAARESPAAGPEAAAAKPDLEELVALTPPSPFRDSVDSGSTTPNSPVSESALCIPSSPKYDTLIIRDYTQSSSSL
- measurement_description: Cytosolic calcium studies with stably transfected cells (FLIPR, CHO-K1)
- condition_parameters: CHO-K1 cells expressing human mGluR5; agonist L-quisqualic acid at 80% of maximal signal; negative modulation; read-out: mGluR5_FLIPR_h_CHO_NAM— IC50
pIC50: −log10 of the molar value.
attribute_measured: pIC50

Known pIC50 results, listed for orientation:
>>> quantitative_readout("Cc1cc2c(s1)CCN(C(=O)c1cc3ncc(Cl)cn3n1)C2C (centres unmarked)")
7.03
>>> quantitative_readout("CCC1c2ccsc2CCN1C(=O)c1cc2ncc(Br)cn2n1 (centres unmarked)")
7.20
>>> quantitative_readout("C[C@@H]1c2ccsc2CCN1C(=O)c1cc2ncc(Br)cn2n1")
7.63
>>> quantitative_readout("CC1c2ccsc2CCN1C(=O)c1cc2ncc(Br)cn2n1 (centres unmarked)")
7.09
>>> quantitative_readout("CC1c2ccoc2CCN1C(=O)c1cc2ncc(Br)cn2n1 (centres unmarked)")
6.97
>>> quantitative_readout("Cc1cc2c(s1)CCN(C(=O)c1cc3ncc(Br)cn3n1)C2C (centres unmarked)")
6.98
>>> quantitative_readout("CC1c2ccoc2CCN1C(=O)c1cc2ncc(Cl)cn2n1 (centres unmarked)")
6.69

A: CCC1c2ccsc2CCN1C(=O)c1cc2ncc(Cl)cn2n1 (centres unmarked)
B: CC1c2ccsc2CCN1C(=O)c1cc2ncc(Cl)cn2n1 (centres unmarked)
C: Cc1cc2c(o1)CCN(C(=O)c1cc3ncc(Br)cn3n1)C2C (centres unmarked)
D: C[C@H]1c2ccsc2CCN1C(=O)c1cc2ncc(Br)cn2n1
Exercise: Your job: order these 4 records by pIC50, ascending. Use the labels to give the ranking in the order requested.
Solution: D, C, A, B
(D: 5.35, C: 6.83, A: 7.09, B: 7.36)
